system: ACVRL1; conditions: Compound Concentration (nM):1000;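 further: KINOMEscan scanMAX binding as percent activity remaining versus control; lower means stronger binding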
metric-name: Percent Control (%)
Give your result in % as a bare value.

Below, 3 compounds whose answers are already recorded.
> print(dat)
                                   compound  observed.value
1  Nc1ncnc2occ(-c3ccc(NC(=O)Nc4cc(C(F)(F)F)ccc4F)cc3)c12 [GW770249X]             100
2  COc1ccc2c(-c3ccnc(Nc4cccc(OC(F)(F)F)c4)n3)cnn2n1 [GW810372X]             100
3  COc1cc(/C=N/Nc2ncnc3[nH]ncc23)ccc1O [GW578748X]              67

Percent Control reading for Cl.O=C(O[C@H]1CN[C@H](C#Cc2cc3ncnc(Nc4ccc5c(cnn5Cc5ccccc5)c4)c3s2)C1)N1CCOCC1 [GSK200398A] : 82
